measurement.target: σ2R/TMEM97 (Rattus norvegicus)
experiment.description: Competitive receptor binding assay with [3H]DTG (σ1R masked with (+)-pentazocine)
endpoint.name: pKi
Note: pKi values are expressed as the negative base-10 logarithm of concentration in M.

Consider the reported pKi for these molecules:
In [3]: df
Out[3]:
                                   molecule  quantitative_readout
0  COc1cc2c(cc1OC)CN(CCCCc1cc(-c3ccc(F)cc3)no1)CC2 [compound 4]                  9.22
1  COc1cc2c(cc1OC)CN(CCc1ccc(NC(=O)c3cccc4c(=O)c5cccc(OC)c5[nH]c34)cc1)CC2 [Elacridar, reference compound]                  7.93
2  C=CCN(C)CCCCCCOc1ccc(C(=O)c2ccc(Br)cc2)c(F)c1 [Ro 48-8071, reference compound]                  6.43

Ask: Identify pKi associated with the molecule COc1cc2c(cc1OC)CN(CCCCc1cc(-c3cc(C)ccc3OCCF)no1)CC2 [compound 3]
Reply: 8.64

Ask: Identify pKi associated with the molecule COc1ccc(C)cc1NC(=O)OC1CC2CCCC(C1)N2CCCCCCN (stereo not drawn) [SV119, reference compound]
Reply: 7.35

Ask: Identify pKi associated with the molecule Cc1ccc2c(c1)C1CN(C)CCC1N2C(=O)CSc1nnnn1-c1ccc(Cl)cc1 (stereo not drawn) [AG-205, reference compound]
Reply: 6.09

Ask: Identify pKi associated with the molecule COc1cc2c(cc1OC)CN(CCCCNC(=O)c1cc(I)cc(OC)c1OC)CC2 [RHM-4]
Reply: 7.93

Ask: Identify pKi associated with the molecule CCCCN1CCc2cc(OC)c(OC)cc2C1 [compound 2]
Reply: 7.98

###

Measured Ki of individual entries
measurement.target: σ2R/TMEM97 (Rattus norvegicus, UniProt Q5U3Y7)
Sequence (Q5U3Y7 whole entry): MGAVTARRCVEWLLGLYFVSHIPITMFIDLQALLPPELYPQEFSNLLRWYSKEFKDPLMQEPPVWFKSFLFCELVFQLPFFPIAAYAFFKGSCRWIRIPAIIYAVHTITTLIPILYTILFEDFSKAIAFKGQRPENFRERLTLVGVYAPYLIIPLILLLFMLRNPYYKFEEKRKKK
experiment.description: Competitive receptor binding assay with [125I]RHM-4
All answers are understood in nM, so give the number only.

Ask: Identify Ki associated with the compound `COc1cc2c(cc1OC)CN(CCCCc1cc(-c3ccc(F)cc3)no1)CC2`
Reply: 0.05

Ask: Identify Ki associated with the compound COc1cccc2c1CCCC2CCCN1CCN(C2CCCCC2)CC1 (stereo not shown) [PB-28, reference compound]
Reply: 0.1

Ask: Identify Ki associated with the compound C=CCN(C)CCCCCCOc1ccc(C(=O)c2ccc(Br)cc2)c(F)c1 [Ro 48-8071, reference compound]
Reply: 73

Ask: Identify Ki associated with the compound `COc1cc2c(cc1OC)CN(CCCCNC(=O)c1cc(I)cc(OC)c1OC)CC2`
Reply: 0.2

Ask: Identify Ki associated with the compound COc1ccc(C)cc1NC(=O)OC1CC2CCCC(C1)N2CCCCCCN (stereo not shown) [SV119, reference compound]
Reply: 35

Ask: Identify Ki associated with the compound `COc1cc2c(cc1OC)CN(CCCCc1cc(-c3cc(C)ccc3OCCF)no1)CC2`
Reply: 0.24

Ask: Identify Ki associated with the compound COc1cc2c(cc1OC)CN(CCc1ccc(NC(=O)c3cccc4c(=O)c5cccc(OC)c5[nH]c34)cc1)CC2 [Elacridar, reference compound]
Reply: 0.9

Ask: Identify Ki associated with the compound Cc1ccc2c(c1)C1CN(C)CCC1N2C(=O)CSc1nnnn1-c1ccc(Cl)cc1 (stereo not shown) [AG-205, reference compound]
Reply: 571

Ask: Identify Ki associated with the compound `CCCCN1CCc2cc(OC)c(OC)cc2C1`
Reply: 7
